# self-cleavage per entry
B1: OR4K15 (parent)
chain: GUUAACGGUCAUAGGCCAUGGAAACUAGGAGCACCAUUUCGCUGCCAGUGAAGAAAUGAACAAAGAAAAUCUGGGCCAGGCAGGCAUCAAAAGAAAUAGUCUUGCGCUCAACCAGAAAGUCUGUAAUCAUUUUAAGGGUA

Variants of: B1
method.description: self-cleavage, relative activity (ratio to wild type); higher = more cleavage; in vitro, sequencing; the parent is a self-cleaving ribozyme
Lab note: write the figure by itself, no unit.

query.sequence	self-cleavage
GUUAACGGUCAUAGGCCAUGGAAACUAGGAGCACCAUUUCGCUGCCAGUGAAGAAAUGAACAAAGAAAAUCUGGGCCAGGCAGGCAUCAAAGGAAAUAGUCUUGCGCUCCACCAGAAAGUCUGUAAUCAUUUUAAGGGUA [A92G A110C]	0.26
GUUAACGGUCAUAGGCCGUGGAAACUAGGAGCACCAUUUCGCUGCCAGUGAUGAAAUGAACAAAGAAAAUCUGGGCCAGGCAGGCAUCAAAAGAAAUAGUCUUGCGCUCAACCAGAAAGUCUGUAAUCAUUUUAAGGGUA [A18G A52U]	1.21
GUUAACGGUCAUAGGCCAUGGAAACUAGGAGCUCCAUUUCGCUGCCAGUGAAGAAAUGAACAAAGAAAAUCUGGGCCAGGCAGGCAUCAAAAGAAAUAGUCUUGCGCUCAACCAGAAAGUCUGCAAUCAUUUUAAGGGUA [A33U U124C]	1.22
GUUAACGGUCAUAGGCCAUGGAAACUAGGAGCACCAUUUCGCUGCCAGUGAAGAAAUGAACAGAGAAAAUCUGGGCCAGGCAGGCAUCAAAAGAAAUAGUCUUGCGCUCAACCAGAAAGUCAGUAAUCAUUUUAAGGGUA [A63G U122A]	1.47
GUUAACGGUCAUAGGCCAUGGAAACUAGGAGCACCAUUUCGCUGCCAGUGAAGAAAUGAACAAAGAAAAUCUGGGCCAGGCAGGCAUCAAAAGAAAUAGUCUUGCGCUCAACCAGAUAGUCUGUAAUCAUGUUAAGGGUA [A117U U131G]	1.38

Request: Recorded self-cleavage of GUUAACGGUCAUAGGCCAUGGAAACUAGGAGCACCAUUUCGCUGCCAGUGAAGAAAUGAACAGAGAAAAUCUGGGCCAGGCAGGCAUCAAAAGAAAUAGUCUUGCGCUCAACCAGAAUGUCUGUAAUCAUUUUAAGGGUA [A63G A118U] , please.
Response: 0.84

Request: Recorded self-cleavage of GUUAACGGUCAUAGACCAUGGAAACUGGGAGCACCAUUUCGCUGCCAGUGAAGAAAUGAACAAAGAAAAUCUGGGCCAGGCAGGCAUCAAAAGAAAUAGUCUUGCGCUCAACCAGAAAGUCUGUAAUCAUUUUAAGGGUA [G15A A27G] , please.
Response: 1.23

Request: Recorded self-cleavage of GUUAACGGUCAUAGGCCAUGGAAACUAGGAGCACCAUUUCGCUGCCAGUGAAGAAAUGAACGAAGAAAAUCUGGGCCAGGCAGGCAUCAAAAGAAAUAGUCUUGCGCUCAACCAGAAAGUCUGUAAUCAUUUUAUGGGUA [A62G A135U] , please.
Response: 1.67

Request: Recorded self-cleavage of GUUAACGGUCGUAGGCCAUGGAAACUAGGAGCACCAUUUCGCUGCCAGUGAAGAAAUGAUCAAAGAAAAUCUGGGCCAGGCAGGCAUCAAAAGAAAUAGUCUUGCGCUCAACCAGAAAGUCUGUAAUCAUUUUAAGGGUA [A11G A60U] , please.
Response: 1.02

Request: Recorded self-cleavage of GUUAACGGUCAUAGGCCAUGGAAACUAGGAGCACCAUUUCGCUGCCAGUGAAGAAAUGAACAAAGAAAAUCUGGGCCAGGCAGGCAUCAAAAGAAAUAGUCUUGCGCUCAACCAGUAAGUCCGUAAUCAUUUUAAGGGUA [A116U U122C] , please.
Response: 0.21
